procedure_text: Cytotoxicity against human MCF10A cells assessed as growth inhibition at 10 ug/ml after 72 hrs by MTT assay
Assay type: cell-based, MCF-10A
experimental_context: read-out: GI
Let's look at some molecules and their measured inhibition at 72 h, 10 ug/ml.
quantity_name: inhibition at 72 h, 10 ug/ml (%)

{"molecule": "CC(=O)Oc1ccc(COP(=O)(OCc2ccc(OC(C)=O)cc2)O[C@H]2[C@H](OCc3ccccc3)[C@@H](OP(=O)(OCc3ccc(OC(C)=O)cc3)OCc3ccc(OC(C)=O)cc3)[C@H](OCc3ccccc3)[C@@H](OP(=O)(OCc3ccc(OC(C)=O)cc3)OCc3ccc(OC(C)=O)cc3)[C@H]2OCc2ccccc2)cc1", "result_number": 34.9}
{"molecule": "CC(=O)Oc1ccc(COP(=O)(OCc2ccc(OC(C)=O)cc2)OC2C3OC4OC(C3OCc3ccccc3)C(O[Si](C)(C)C(C)(C)C)C2O4)cc1 (configuration not stated)", "result_number": 100}
